# tested_on: CDK6-CYCLIND3 (Homo sapiens)
# Construct: purchased Carna
# Sequence (Q00534 whole entry): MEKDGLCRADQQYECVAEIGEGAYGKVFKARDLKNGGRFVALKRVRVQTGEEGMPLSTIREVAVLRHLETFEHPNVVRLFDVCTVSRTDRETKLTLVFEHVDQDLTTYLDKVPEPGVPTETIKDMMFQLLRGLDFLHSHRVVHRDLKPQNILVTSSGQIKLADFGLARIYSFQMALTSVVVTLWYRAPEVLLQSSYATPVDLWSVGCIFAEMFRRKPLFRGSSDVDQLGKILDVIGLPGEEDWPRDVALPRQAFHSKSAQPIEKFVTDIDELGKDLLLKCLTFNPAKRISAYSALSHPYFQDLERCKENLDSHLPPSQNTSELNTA
# Sequence (P30281 whole entry partner): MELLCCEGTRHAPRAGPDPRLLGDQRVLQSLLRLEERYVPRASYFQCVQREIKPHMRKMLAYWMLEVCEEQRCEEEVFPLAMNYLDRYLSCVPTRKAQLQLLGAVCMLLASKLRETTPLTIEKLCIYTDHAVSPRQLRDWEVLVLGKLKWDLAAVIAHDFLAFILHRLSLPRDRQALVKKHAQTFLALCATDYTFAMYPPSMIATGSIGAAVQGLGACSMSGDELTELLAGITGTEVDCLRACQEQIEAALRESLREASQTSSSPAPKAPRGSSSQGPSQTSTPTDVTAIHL
# assay_remarks: Microfluidic LabChip kinase inhibition assay, CDK6-CyclinD3
# Assay type: biochemical
# cond: Table 2; 300 μM ATP, 2 nM enzyme; read-out: CDK6 IC50
observation_type: pIC50
Value format note: pIC50 is -log10 of concentration (mol/L); just state the number.

compound: O=C1NCCC12Cc1cnc(Nc3ccc(N4CCNCC4)cn3)nc1N2C1CCCC1 (stereo not shown)
pIC50: 5.68

Switching to the query record.
Query string: Tell us which pIC50 value is on record for CC(C)N1CCN(c2ccc(Nc3ncc4c(n3)N(C3CCCC3)C3(CCNC3=O)C4)cc2F)CC1 (stereo not shown)
Result string: 6.76

====

# tested_on: CDK1/B (Homo sapiens)
# Sequence (P06493 whole entry): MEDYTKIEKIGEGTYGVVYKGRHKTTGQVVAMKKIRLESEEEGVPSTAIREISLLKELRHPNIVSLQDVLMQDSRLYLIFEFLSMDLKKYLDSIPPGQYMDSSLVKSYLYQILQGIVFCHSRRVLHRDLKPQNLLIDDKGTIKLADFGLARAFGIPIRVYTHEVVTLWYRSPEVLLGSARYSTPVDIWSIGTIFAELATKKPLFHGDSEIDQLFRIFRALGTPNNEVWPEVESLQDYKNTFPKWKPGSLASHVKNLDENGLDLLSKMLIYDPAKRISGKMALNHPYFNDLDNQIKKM
# Sequence (P14635 whole entry partner): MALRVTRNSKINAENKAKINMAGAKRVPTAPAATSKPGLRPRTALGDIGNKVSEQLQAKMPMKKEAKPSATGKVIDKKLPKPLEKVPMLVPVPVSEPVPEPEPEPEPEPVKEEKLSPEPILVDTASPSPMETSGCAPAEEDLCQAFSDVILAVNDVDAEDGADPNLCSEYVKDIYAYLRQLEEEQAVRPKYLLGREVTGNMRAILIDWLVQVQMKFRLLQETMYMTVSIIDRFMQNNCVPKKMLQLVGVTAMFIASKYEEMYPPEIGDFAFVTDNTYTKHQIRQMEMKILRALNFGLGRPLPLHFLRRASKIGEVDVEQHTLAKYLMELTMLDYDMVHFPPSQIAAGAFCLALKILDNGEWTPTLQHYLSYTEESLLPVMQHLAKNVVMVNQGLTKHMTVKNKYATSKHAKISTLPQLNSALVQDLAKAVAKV
# assay_remarks: Additional inhibition assay, CDK1/B
# Format: biochemical
# cond: Table 3a
Overview of reported pIC50 across a group of compounds:
Remember the convention: pIC50 equals -log10 of concentration in molar.

compound: CC1CN(c2ccc(Nc3ncc4c(n3)N(C3CCCC3)C3(CC(=O)NC3=O)C4)cc2)CC(C)N1 (stereo not shown)
tested_on: CDK1/B (Homo sapiens)
pIC50: 5.69

Consider now this further compound.
Query string: Fill in pIC50 for record CN(C)[C@H]1CCN(C(=O)c2ccc(Nc3ncc4c(n3)N(C3CCCC3)C3(CCNC3=O)C4)cc2)C1 (stereo partly shown)
Result string: 5.98

====

Recorded log10 of IC50, one value per entry.
# tested_on: CDK4-CYCLIND1 (Homo sapiens)
# Sequence (P11802 whole entry): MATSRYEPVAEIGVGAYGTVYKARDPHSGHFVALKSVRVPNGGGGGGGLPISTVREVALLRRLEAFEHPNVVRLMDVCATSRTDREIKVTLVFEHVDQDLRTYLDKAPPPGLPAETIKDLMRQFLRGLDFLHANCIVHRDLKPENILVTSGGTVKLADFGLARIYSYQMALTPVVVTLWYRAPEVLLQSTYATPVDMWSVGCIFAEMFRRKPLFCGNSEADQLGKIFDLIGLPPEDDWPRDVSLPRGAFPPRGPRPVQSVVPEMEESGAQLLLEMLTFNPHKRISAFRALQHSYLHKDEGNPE
# Sequence (P24385 whole entry partner): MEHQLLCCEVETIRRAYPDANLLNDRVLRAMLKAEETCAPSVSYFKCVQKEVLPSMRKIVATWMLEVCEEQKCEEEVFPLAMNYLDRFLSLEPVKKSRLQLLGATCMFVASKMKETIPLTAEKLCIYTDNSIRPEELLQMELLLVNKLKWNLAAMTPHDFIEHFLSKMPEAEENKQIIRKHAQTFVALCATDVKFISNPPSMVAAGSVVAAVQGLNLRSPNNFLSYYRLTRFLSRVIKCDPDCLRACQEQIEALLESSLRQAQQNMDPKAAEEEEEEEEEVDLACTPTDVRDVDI
# assay_remarks: Microfluidic LabChip kinase inhibition assay, CDK4-CyclinD1
# cond: CDK4 CyclinD1 IC50 (μM), Table 3b; 200 μM ATP; second value in parentheses on the next line
All values: log10 IC50 [µM].

Worked examples, 10 compounds total:
compound: CC(C)N1CC2(CN(c3ccc(Nc4ncc5c(n4)N(C4CCCC4)C4(CC(=O)NC4=O)C5)cc3)C2)C1 (stereo not drawn)
observation_type: log10 of IC50
numeric_value: -0.28
//
compound: CN1CCN(c2ccc(Nc3ncc4c(n3)N(C3CCCC3)C3(CC(=O)NC3=O)C4)cc2)CC1 (single isomer, unassigned) [Compound C137]
observation_type: log10 of IC50
numeric_value: -0.69
//
compound: COc1cc(Nc2ncc3c(n2)N(C2CCCC2)C2(CCNC2=O)C3)ccc1N1CCN(C)CC1 (stereo not drawn)
observation_type: log10 of IC50
numeric_value: -0.02
//
compound: CC(C)c1ccc(Nc2ncc3c(n2)N(C2CCCC2)C2(CCNC2=O)C3)cc1 (stereo not drawn)
observation_type: log10 of IC50
numeric_value: 0.14
//
compound: CC1CN(c2ccc(Nc3ncc4c(n3)N(C3CCCC3)C3(CCNC3=O)C4)cc2)CC(C)N1 (stereo not drawn)
observation_type: log10 of IC50
numeric_value: -0.47
//
compound: CN1CCN(c2ccc(Nc3ncc4c(n3)N(C3CCCCC3)C3(CCNC3=O)C4)cc2)CC1 (stereo not drawn)
observation_type: log10 of IC50
numeric_value: -1.48
//
compound: CN1CCN(c2ccc(Nc3ncc4c(n3)N(C3CCCC3)C3(CCNC3=O)C4)cc2F)CC1 (single isomer, unassigned) [Compound C205]
observation_type: log10 of IC50
numeric_value: -1.38
//
compound: Cn1cc(-c2ccc(Nc3ncc4c(n3)N(C3CCCC3)C3(CCNC3=O)C4)cc2)cn1 (stereo not drawn)
observation_type: log10 of IC50
numeric_value: 0.12
//
compound: CN1CCN(c2ccc(Nc3ncc4c(n3)N(C3CCCC3)C3(CCNC3=O)C4)cc2F)CC1 (single isomer, unassigned) [Compound C206]
observation_type: log10 of IC50
numeric_value: 0.71
//
compound: CC(C)N1CCN(c2ccc(Nc3ncc4c(n3)N(C3CCCC3)C3(CCNC3=O)C4)cc2F)CC1 (stereo not drawn)
observation_type: log10 of IC50
numeric_value: -1.58

Query string: Hello, please tell me recorded log10 of IC50 for this one: O=C1NCCC12Cc1cnc(Nc3ccc(N4CCNCC4)c(F)c3)nc1N2C1CCCC1 (single isomer, unassigned) [Compound C204]
Result string: 0.31

Query string: Supply recorded log10 of IC50 for O=C1NCCC12Cc1cnc(Nc3ccc(N4CCC(N5CCOCC5)CC4)cc3)nc1N2C1CCCC1 (stereo not drawn) here.
Result string: -0.56

Query string: Look up and state reported log10 of IC50 for CN(C)[C@H]1CCN(c2ccc(Nc3ncc4c(n3)N(C3CCCC3)C3(CCNC3=O)C4)cc2F)C1 (stereo partly drawn)
Result string: -0.96

Query string: # return recorded log10 of IC50 for entry O=C1NCCC12Cc1cnc(Nc3ccc(N4CCC(N5CCOCC5)CC4)nc3)nc1N2C1CCCC1 (stereo not drawn)
Result string: -0.69

Query string: Complete the entry with log10 of IC50 for O=C1NCCC12Cc1cnc(Nc3ccc(OCCN4CCOCC4)cc3)nc1N2C1CCCC1 (stereo not drawn)
Result string: -0.15

====

The following molecules are shown together with reported IC50 values.
# tested_on: CDK7 CyclinH (Homo sapiens)
# Sequence (P50613 whole entry): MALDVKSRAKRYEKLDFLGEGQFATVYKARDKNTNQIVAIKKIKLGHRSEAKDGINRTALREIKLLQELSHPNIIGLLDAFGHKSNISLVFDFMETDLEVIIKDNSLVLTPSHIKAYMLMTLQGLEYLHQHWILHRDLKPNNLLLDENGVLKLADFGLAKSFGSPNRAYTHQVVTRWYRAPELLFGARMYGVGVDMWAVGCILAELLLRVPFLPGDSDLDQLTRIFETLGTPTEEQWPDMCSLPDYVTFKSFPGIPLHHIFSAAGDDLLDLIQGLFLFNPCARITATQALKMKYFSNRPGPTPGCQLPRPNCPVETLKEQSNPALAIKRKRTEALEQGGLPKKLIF
# Sequence (P51946 whole entry partner): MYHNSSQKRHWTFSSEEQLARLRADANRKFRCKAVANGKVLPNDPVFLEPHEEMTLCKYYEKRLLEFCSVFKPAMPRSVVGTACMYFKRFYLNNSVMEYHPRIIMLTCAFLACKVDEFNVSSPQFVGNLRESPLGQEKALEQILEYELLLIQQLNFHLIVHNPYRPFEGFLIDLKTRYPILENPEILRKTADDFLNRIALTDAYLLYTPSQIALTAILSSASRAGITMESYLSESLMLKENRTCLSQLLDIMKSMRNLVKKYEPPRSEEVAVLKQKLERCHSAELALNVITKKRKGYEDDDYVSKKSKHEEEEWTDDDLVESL
# Sequence (P51948 whole entry partner): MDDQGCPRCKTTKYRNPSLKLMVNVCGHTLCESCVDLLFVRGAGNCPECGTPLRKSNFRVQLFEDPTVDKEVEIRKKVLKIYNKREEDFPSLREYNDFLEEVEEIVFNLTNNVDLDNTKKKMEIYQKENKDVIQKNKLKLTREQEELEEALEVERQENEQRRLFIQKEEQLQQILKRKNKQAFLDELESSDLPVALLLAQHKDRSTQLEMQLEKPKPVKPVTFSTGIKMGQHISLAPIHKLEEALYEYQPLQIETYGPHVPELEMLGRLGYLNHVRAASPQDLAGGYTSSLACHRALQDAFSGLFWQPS
# assay_remarks: Additional inhibition assay, CDK7 CyclinH
# Type: biochemical
# cond: Table 3a

molecule: CN1CCN(c2ccc(Nc3ncc4c(n3)N(C3CCCC3)C3(CC(=O)NC3=O)C4)cc2)CC1 (single isomer, unassigned) [Compound C137]
IC50: 0.585 µM
//
molecule: CN1CCN(c2ccc(Nc3ncc4c(n3)N(C3CCCC3)C3(CC(=O)NC3=O)C4)cc2F)CC1 (stereo not shown)
IC50: 0.168 µM
//
molecule: CC1CN(c2ccc(Nc3ncc4c(n3)N(C3CCCC3)C3(CCNC3=O)C4)cc2)CC(C)N1 (stereo not shown)
IC50: > 10 µM
//
molecule: CN(C)[C@H]1CCN(C(=O)c2ccc(Nc3ncc4c(n3)N(C3CCCC3)C3(CCNC3=O)C4)cc2)C1 (stereo partly shown)
IC50: > 10 µM
//
molecule: CN(C)CCOc1ccc(Nc2ncc3c(n2)N(C2CCCC2)C2(CCNC2=O)C3)cc1 (stereo not shown)
IC50: > 10 µM

Query string: In one line, give reported IC50 of the entry O=C1NCCC12Cc1cnc(Nc3ccc(OCCN4CCOCC4)cc3)nc1N2C1CCCC1 (stereo not shown) .
Result string: > 10 µM

Query string: For CN(C)[C@@H]1CCN(c2ccc(Nc3ncc4c(n3)N(C3CCCC3)C3(CCNC3=O)C4)cc2F)C1 (stereo partly shown) , write its IC50.
Result string: > 10 µM

====

# tested_on: CDK7 CyclinH (Homo sapiens)
# assay_remarks: Additional inhibition assay, CDK7 CyclinH
# Type: biochemical
# cond: Table 3b
# pIC50 values compiled below
Kindly note that pIC50 refers to -log10 of the concentration in mol/L and answer with the value alone.

Look over these answered cases.
compound: CN1CCN(c2ccc(Nc3ncc4c(n3)N(C3CCCC3)C3(CC(=O)NC3=O)C4)cc2F)CC1 (stereo not shown)
pIC50: 6.77
//
compound: CN1CCN(c2ccc(Nc3ncc4c(n3)N(C3CCCC3)C3(CC(=O)NC3=O)C4)cc2)CC1 (single isomer, unassigned) [Compound C137]
pIC50: 6.23

Query string: Report pIC50 for CN1CCN(c2ccc(Nc3ncc4c(n3)N(C3CCCC3)C3(CCNC3=O)C4)cc2F)CC1 (single isomer, unassigned)
Result string: 4.66

Query string: Item CC(C)N1CCN(c2ccc(Nc3ncc4c(n3)N(C3CCCC3)C3(CC(=O)NC3=O)C4)cc2)CC1 (stereo not shown) : provide pIC50
Result string: 5.09

====

# tested_on: CDK2-CYCLINA (Homo sapiens)
# Construct: purchased Millipore
# assay_remarks: Microfluidic LabChip kinase inhibition assay, CDK2-CyclinA
# Format: biochemical
# cond: Table 3a; 50 μM ATP
observation_type: pIC50
By convention, pIC50 is the negative base-10 log of a molar concentration.

compound: CN1CCN(c2ccc(Nc3ncc4c(n3)N(C3CCCC3)C3(CC(=O)NC3=O)C4)cc2)CC1 (single isomer, unassigned) [Compound C136]
numeric_value: 5.81
--
compound: CC(C)N1CCN(c2ccc(Nc3ncc4c(n3)N(C3CCCC3)C3(CCNC3=O)C4)cc2F)CC1 (stereo not drawn) [Compound C118]
numeric_value: 5.31
--
compound: CN(C)[C@@H]1CCN(C(=O)c2ccc(Nc3ncc4c(n3)N(C3CCCC3)C3(CCNC3=O)C4)cc2)C1 (stereo partly drawn) [Compound C181]
numeric_value: 5.71
--
compound: CC1CN(c2ccc(Nc3ncc4c(n3)N(C3CCCC3)C3(CC(=O)NC3=O)C4)cc2)CC(C)N1 (stereo not drawn) [Compound C208]
numeric_value: 5.64
--
compound: CN1CCN(c2ccc(Nc3ncc4c(n3)N(C3CCCC3)C3(CC(=O)NC3=O)C4)cc2F)CC1 (stereo not drawn) [Compound C198]
numeric_value: 6.61
--
compound: O=C1NCCC12Cc1cnc(Nc3ccc(N4CCC(N5CCOCC5)CC4)c(F)c3)nc1N2C1CCCC1 (stereo not drawn) [Compound C132]
numeric_value: 5.02
--
compound: CC1CN(c2ccc(Nc3ncc4c(n3)N(C3CCCC3)C3(CCNC3=O)C4)cc2)CC(C)N1 (stereo not drawn) [Compound C207]
numeric_value: 5.02

// next item, pIC50 requested
Query string: Write down pIC50 measured for item CN(C)[C@H]1CCN(C(=O)c2ccc(Nc3ncc4c(n3)N(C3CCCC3)C3(CCNC3=O)C4)cc2)C1 (stereo partly drawn) [Compound C178]
Result string: 6.17
